# protocol-notes: in vitro
# assay-context: human, uninfected MT-4 cells, CC50 (nM), same protocol as Test A, CellTiter-Glo
For each record, check the reported CC50 at 5 days: if it is below 20000 nM write 1 (yes), else write 0 (no).

Study these solved cases before continuing.
NC(=O)c1cc(-c2cccnc2[C@H](Cc2cc(F)cc(F)c2)NC(=O)Cn2nc3c(c2C(F)F)CC2CC32)ccc1F (stereo partly shown) | 0 (no)
O=C(Cn1nc(C(F)F)c2c1C(F)(F)C1CC21)N[C@@H](Cc1cc(F)cc(F)c1)c1ncccc1-c1ccc(S(=O)(=O)NC2CCCCC2)cc1 (stereo partly shown) | 1 (yes)
O=C(Cn1nc(C(F)(F)F)c2c1CCCC2)N[C@@H](Cc1cc(F)cc(F)c1)c1ncccc1-c1cccc(OC(F)(F)F)c1 | 1 (yes)
CN1Cc2nn(CC(=O)N[C@@H](Cc3cc(F)cc(F)c3)c3ncccc3-c3ccc(F)c(C(N)=O)c3)c(C(F)(F)F)c2C1 | 0 (no)
CC(C)(C)OC(=O)N1[C@@H](C(=O)N[C@@H](Cc2cc(F)cc(F)c2)c2ncccc2-c2ccc(F)c(C(N)=O)c2)CC[C@H]1c1ccccc1 | 1 (yes)
CC(C)NS(=O)(=O)c1ccc(-c2cccnc2[C@H](Cc2cc(F)cc(F)c2)NC(=O)Cn2nc(C(F)F)c3c2C(F)(F)C2CC32)cc1 (stereo partly shown) | 0 (no)

Dear colleague, could you confirm whether CC50 at 5 days of C=Cc1cn(CC(=O)N[C@@H](Cc2cc(F)cc(F)c2)c2ncccc2-c2ccc(F)c(C(N)=O)c2)nc1C(F)(F)F falls below 20000 nM? Thanks.
0 (no)

Dear colleague, could you confirm whether CC50 at 5 days of NC(=O)c1cc(-c2cccnc2C(Cc2cc(F)cc(F)c2)NC(=O)Cn2nc(C(F)F)c3c2C2CC2CC3)ccc1F (stereo not shown) falls below 20000 nM? Thanks.
1 (yes)

Dear colleague, could you confirm whether CC50 at 5 days of CCn1c(=O)c2c(n1CC(=O)N[C@@H](Cc1cc(F)cc(F)c1)c1ncccc1-c1ccc(F)c(C(N)=O)c1)CCCC2 [Example 170C] falls below 20000 nM? Thanks.
0 (no)

Dear colleague, could you confirm whether CC50 at 5 days of COc1ccc(-c2cccnc2[C@H](Cc2cccc(F)c2)NC(=O)Cn2nc(C(F)(F)F)c3c2CCCC3)cc1 falls below 20000 nM? Thanks.
1 (yes)

Dear colleague, could you confirm whether CC50 at 5 days of CC12CCC(c3c(C(F)(F)F)nn(CC(=O)N[C@@H](Cc4cc(F)cc(F)c4)c4ncccc4-c4ccc(F)c(C(N)=O)c4)c31)C2(C)C (stereo partly shown) [Example 74D] falls below 20000 nM? Thanks.
1 (yes)

Dear colleague, could you confirm whether CC50 at 5 days of NC(=O)c1cc(-c2cccnc2[C@H](Cc2cc(F)cc(F)c2)NC(=O)Cn2nc(C(F)(F)F)c3c2CCC(=O)C3)ccc1F falls below 20000 nM? Thanks.
0 (no)

Dear colleague, could you confirm whether CC50 at 5 days of Cc1c(C(F)F)nn(CC(=O)N[C@@H](Cc2cc(F)cc(F)c2)c2ncccc2-c2ccc(F)c(C(N)=O)c2)c1C(F)F falls below 20000 nM? Thanks.
0 (no)

====

# protocol-notes: in vitro
# assay-context: human, uninfected MT-4 cells, CC50 (nM), same protocol as Test A, CellTiter-Glo
measured-metric: CC50 at 5 days (nM)
Write down the numeric answer in nM and omit the unit.

Solved cases (5 shown):
O=C(Cn1nc(C(F)F)c2c1C(F)(F)CCC2(F)F)N[C@@H](Cc1cc(F)cc(F)c1)c1ncccc1-c1ccc2c(c1)CNC2=O [Example 508D] | 5130
Cc1[nH]c2ccccc2c1CC(=O)N[C@@H](Cc1cc(F)cc(F)c1)c1ncccc1-c1cccc(C(N)=O)c1 | 27100
CC(C)(C)c1cc(C(F)(F)F)n(CC(=O)N[C@@H](Cc2cc(F)cc(F)c2)c2ncccc2-c2ccc(F)c(C(N)=O)c2)n1 [Example 238E] | 17000
CC1CCCc2c(C(F)(F)F)nn(CC(=O)N[C@@H](Cc3cc(F)cc(F)c3)c3ncccc3-c3cccc(C(N)=O)c3)c21 (stereo partly drawn) | 13300
CCCCC(C(=O)N[C@@H](Cc1cc(F)cc(F)c1)c1ncccc1-c1ccc(F)c(C(N)=O)c1)n1ccc(C(F)(F)F)n1 (single isomer, unassigned) [Example 487C] | 9710

Proceed to the following item.
Which CC50 at 5 days value is on record for NC(=O)c1cc(-c2cccnc2[C@H](Cc2cc(F)cc(F)c2)NC(=O)Cn2c(=O)n(C3=CCCCC3)c3ccccc32)ccc1F ?
15800

====

# protocol-notes: in vitro
# assay-context: human, uninfected MT-4 cells, CC50 (nM), same protocol as Test A, CellTiter-Glo
// CC50 at 5 days lookup, one value per entry
Write down the numeric answer in nM and omit the unit.

CC(C)(C)NC(=O)c1cc(-c2cccnc2[C@H](Cc2cc(F)cc(F)c2)NC(=O)Cc2c[nH]c3ccc(F)cc23)ccc1F | 12800
O=C(Cc1c[nH]c2ccc(F)cc12)N[C@@H](Cc1cc(F)cc(F)c1)c1ncccc1-c1cnc2ccccc2c1 | 9950
O=C(Cn1nc(C(F)F)c2c1C(F)(F)C1CC21)N[C@@H](Cc1cc(F)cc(F)c1)c1ncccc1-c1ccc2cnccc2c1 (some centres unmarked) | 11300
NC(=O)c1cc(-c2cccnc2[C@H](Cc2cc(F)cc(F)c2)NC(=O)C(c2ccccc2)C2CCCC2)ccc1F (single isomer, unassigned) | 9460
O=C(Cc1c[nH]c2ccc(O)cc12)N[C@@H](Cc1cc(F)cc(F)c1)c1ncccc1-c1ccc(F)cc1 | 22300

Which CC50 at 5 days value is on record for COc1nc2c(CC(=O)N[C@@H](Cc3cc(F)cc(F)c3)c3ncccc3-c3cccc(C(N)=O)c3)c[nH]c2cc1C [Example 360E] ?
13100

Which CC50 at 5 days value is on record for N#Cc1cccc(-c2cccnc2[C@H](Cc2cc(F)cc(F)c2)NC(=O)Cc2c[nH]c3ccc(O)cc23)c1 [Example 38E] ?
28600

Which CC50 at 5 days value is on record for NC(=O)c1cc(-c2cccnc2[C@H](Cc2cc(F)cc(F)c2)NC(=O)Cn2ccc3ccc(Cl)cc32)ccc1F ?
10400

====

# protocol-notes: in vitro
# assay-context: human, uninfected MT-4 cells, CC50 (nM), same protocol as Test A, CellTiter-Glo
measured-metric: CC50 at 5 days (nM)
Write down the numeric answer in nM and omit the unit.

Cc1noc(C)c1-c1cccnc1[C@H](Cc1cc(F)cc(F)c1)NC(=O)Cc1c[nH]c2ccc(F)cc12 [Example 94] | 42000
NC(=O)c1cc(-c2cccnc2[C@H](Cc2cc(F)cc(F)c2)NC(=O)Cn2nc(C(F)(F)F)c3c2C(O)C2CC32)ccc1F (stereo partly shown) [Example 154] | 36800
NC(=O)c1cc(-c2cccnc2[C@H](Cc2cc(F)cc(F)c2)NC(=O)Cn2cnc3c(Cl)nccc32)ccc1F [Example 368] | 47300
O=C(Cn1nc(C(F)F)c2c1C(F)(F)C1CC21)N[C@@H](Cc1cc(F)cc(F)c1)c1ncccc1-c1cnc2c(c1)CCCN2 (stereo partly shown) [Example 442] | 8880
CC1Cc2c(C(F)(F)F)nn(CC(=O)N[C@@H](Cc3cc(F)cc(F)c3)c3ncccc3-c3ccc(F)c(C(N)=O)c3)c2C1 (stereo partly shown) [Example 234] | 15900

Which CC50 at 5 days value is on record for O=C(Cn1nc(C(F)F)c2c1C(F)(F)C1CC21)N[C@@H](Cc1cc(F)cc(F)c1)c1ncncc1-c1cnc2[nH]ncc2c1 (stereo partly shown) [Example 176C] ?
46500

Which CC50 at 5 days value is on record for N#Cc1nn(CC(=O)N[C@@H](Cc2cc(F)cc(F)c2)c2ncccc2-c2ccc(F)c(C(N)=O)c2)c2c1C1CC1C2(F)F (stereo partly shown) [Example 254] ?
16600

Which CC50 at 5 days value is on record for CC(C)(C)OC(=O)N1Cc2c(C(F)(F)F)nn(CC(=O)N[C@@H](Cc3cc(F)cc(F)c3)c3ncccc3-c3ccc(F)c(C(N)=O)c3)c2C1 [Example 227] ?
14300

Which CC50 at 5 days value is on record for COC(=O)c1nn(CC(=O)N[C@@H](Cc2cc(F)cc(F)c2)c2ncccc2-c2ccc(F)c(C(N)=O)c2)c2c1COC2 [Example 452C] ?
9070

Which CC50 at 5 days value is on record for O=C(Cc1c[nH]c2ccc(=O)[nH]c12)N[C@@H](Cc1cc(F)cc(F)c1)c1ncccc1-c1ccc(Cl)cc1 [Example 37] ?
34200

====

// CC50 lookup, one value per entry
# Tested on: MT-4 cells
# protocol-notes: in vitro
# assay-context: uninfected MT-4 cells, same protocol as Test A, 5 days, CellTiter-Glo
Write down the numeric answer in µM and omit the unit.

Solved cases (2 shown):
Cc1cc2ncn(C(CC(F)(F)F)C(=O)N[C@@H](Cc3cc(F)cc(F)c3)c3ncccc3-c3ccc(F)c(C(N)=O)c3)c2cc1C (single isomer, unassigned) | 34.8
NC(=O)c1cccc(-c2cccnc2[C@H](Cc2cc(F)cc(F)c2)NC(=O)CC2C(=O)Nc3ccccc32)c1 (stereo partly drawn) | 47.6

Which CC50 value is on record for CN(C)C(C(=O)N[C@@H](Cc1cc(F)cc(F)c1)c1ncccc1-c1ccc(F)c(C(N)=O)c1)c1ccc(F)cc1 (single isomer, unassigned) ?
38.6
